Listing of entries alongside the reported self-cleavage kobs at 2500 uM GlcN6P.
B1: glmS ribozyme (parent)
chain: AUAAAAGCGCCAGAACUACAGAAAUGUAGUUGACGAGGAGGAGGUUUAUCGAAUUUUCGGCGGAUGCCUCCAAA

# Variants of: B1
# Experiment description: self-cleavage kobs at 2500 uM GlcN6P; higher = faster cleavage; RNA array
# Measurement context: with glucosamine-6-phosphate
Fewer inactive variants are shown than the library holds.
Property measured: self-cleavage kobs at 2500 uM GlcN6P (s⁻¹)

>>> readout_value("A12U U31G U56A")
0.00599
>>> readout_value("A39C C68U")
0.000367
>>> readout_value("G43A C70U")
"4.94e-05"
>>> readout_value("G32C U55G")
"2.64e-05"
>>> readout_value("A48G U56G")
"6.4e-05"
>>> readout_value("C16A G41C C70U")
"5.88e-05"
>>> readout_value("U30A U54C C71U")
0.00391
>>> readout_value("U30G A53G C67U")
0.00132
>>> readout_value("U46C A53U")
0.0012
>>> readout_value("G29C C50U C68A")
"7.07e-05"
>>> readout_value("U55A U57G")
"2.56e-05"
>>> readout_value("U31G U47A")
0.00332
>>> readout_value("A6U C71G")
"2.85e-05"
